ASSAY_EXPLANATION: modulators of HCV replicon luciferase signal, primary screen, HCV replication inhibitor project, Huh7 cells, luciferase reporter (AID 1109);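 note: huh7 hepatoma cells harbouring a luciferase neomycin HCV replicon reporter; luciferase luminescence as measure of HCV replicon replication; test concentration not given here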
RUN_CONDITIONS: 48 h, higher = more signal
# z-score annotations
Just the number.

Answered cases to consult:
Given CO[C@@H]1COC(=O)CC=C[C@H](C)COC(=O)[C@H](C)NC(=O)CC=C[C@H]1C , state its recorded z-score.
-0.394

Given CC(=O)OC[C@H]1O[C@H](C#CC(C)(C)C)C=C[C@@H]1OC(C)=O , state its recorded z-score.
-1.94

Given CC(C)=NOC[C@@H](O)COCc1ccco1 , state its recorded z-score.
0.797

Others:
Given CO[C@H]1COC(=O)[C@H](C)NC(=O)CC=C[C@@H](C)[C@H](OC)COC(=O)CC=C[C@@H]1C , state its recorded z-score.
-0.885

Given CC(C)C(=O)N[C@@H]1CCCN1C(=O)C=Cc1ccccc1 , state its recorded z-score.
-1.05

Given CO[C@H]1COC(=O)CC=C[C@@H](C)COC(=O)[C@@H](OCc2ccccc2)C=C[C@@H]1C , state its recorded z-score.
-0.0629

Given C[C@@H](c1ccccc1)N1C(=O)[C@H]2[C@H]3[C@H](O)[C@H](O)CC(=O)[C@@H]3CC[C@H]2C1=O , state its recorded z-score.
0.265
